- system tested: T1, human CD8A on primary human CD8+ T cells (human, UniProt P01732 22-235)
- T1 construct: whole, on cells; also called Human T-cells; CD8 alpha
- T1 sequence (P01732 22-235): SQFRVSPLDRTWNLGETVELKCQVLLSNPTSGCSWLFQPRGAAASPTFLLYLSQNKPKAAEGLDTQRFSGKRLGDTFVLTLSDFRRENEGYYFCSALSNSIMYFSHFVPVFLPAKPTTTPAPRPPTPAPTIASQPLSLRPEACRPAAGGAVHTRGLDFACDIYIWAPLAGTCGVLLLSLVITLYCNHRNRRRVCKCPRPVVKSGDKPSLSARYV
- run description: flow cytometry on human CD8+ T cells
experimental readout: EC50 (nM)

For orientation, consider the following solved cases.
binder	EC50 / nM
CD8S368 (designed binder, P282DR9P1359_F5 with E54C; the entry holds the mutation) LPAPKNLVVSRVTEDSARLSWTAPDAAFDSFQIAYPEWPPPGEAIVLTVPGSCRSYDLTGLKPGTEYFVIIQGVKGGVESWPLSAIFTT	155
CD8S366 (designed binder, P282DR9P1359_C5 with E54C; the entry holds the mutation) LPAPKNLVVSRVTEDSARLSWTAPDAAFDSFWITYPEWPDPGGEAIVLTVPGSCRSYDLTGLKPGTEYFVVIYGVKGGEIYSPLSAIFTT	163
CD8S367 (designed binder, P282DR9P1359_F7 with E54C; the entry holds the mutation) LPAPKNLVVSRVTEDSARLSWTAPDAAFDSFAIAYPEWPPQGEAIVLTVPGSCRSYDLTGLKPGTEYFVVIYGVKGGSYSAPLSAIFTT	194

[A] CD8S370 (designed binder, P282DR9P1359_G7 with E54C; the entry holds the mutation) LPAPKNLVVSRVTEDSARLSWTAPDAAFDSFAITYIEKEHIEDGEAIVLTVPGSCRSYDLTGLKPGTEYWVPIWGVKGGANSWPLSAIFTT
[B] CD8S369 (designed binder, P283AR9P1362_D6 with E54C; the entry holds the mutation) LPAPKNLVVSRVTEDSARLSWAKRPGAFDSFLIQYQESEKVGEAIVLTVPGSCRSYDLTGLKPGTEYTVSIYGVDVKYDIDSRPISSNPLSAIFTT
[C] CD8S365 (designed binder, P282ER9P1360_C8 with E54C; the entry holds the mutation) LPAPKNLVVSRVTEDSARLSWTAPDAAFDSFGILYYEPVDSGEAITLPVPGSCRSYDLTGLKPGTEYWVVITGVKGGAPSTPLGTIFTT
Q: Ordering criterion: EC50; begin with the maximum. Output the labels ranked as instructed.
Ans: C, A, B
